Origin of values: patent US20130217664A1

- TARGET_OF_ASSAY: human TYK2 (Homo sapiens, UniProt P29597)
- Construct: catalytic domain (amino acids 871-1187; catalog number 08-147)
- Sequence (P29597 871-1187): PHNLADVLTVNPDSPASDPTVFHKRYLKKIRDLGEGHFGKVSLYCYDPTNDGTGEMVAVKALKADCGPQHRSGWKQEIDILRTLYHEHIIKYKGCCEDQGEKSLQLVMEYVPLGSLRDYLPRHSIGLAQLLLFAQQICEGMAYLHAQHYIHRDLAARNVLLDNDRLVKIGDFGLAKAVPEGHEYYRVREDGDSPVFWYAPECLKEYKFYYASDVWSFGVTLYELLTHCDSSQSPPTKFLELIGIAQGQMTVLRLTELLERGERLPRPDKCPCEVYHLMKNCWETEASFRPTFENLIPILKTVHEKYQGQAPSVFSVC
- PROTOCOL_DETAILS: TYK2 inhibition assay
- CONDITIONS: recombinant human TYK2 catalytic domain, polyGT substrate
pIC50: −log10 of the molar value.
OUTCOME_MEASURE: pIC50

See these solved cases before continuing.
MOLECULE | pIC50
CCc1cc(C2=CCOCC2)ccc1N(C)c1cc2c(cn1)ncn2C [Compound 153] | 7.00 to 11.00
CCc1cc(C(C#N)N2CC(NS(C)(=O)=O)C2)ccc1N(C)c1cc2c(cn1)ncn2C (stereo not drawn) [Compound 455] | 7.00 to 11.00
CCc1cc(CNS(=O)(=O)CC#N)ccc1N(C)c1cc2c(cn1)ncn2C [Compound 228] | 7.00 to 11.00
CCc1cc(-c2ccc(C)nc2)ccc1N(C)c1cc2c(cn1)ncn2C [Compound 131] | 6.30 to 7.00
CCc1cc(CO)ccc1N(C)c1cc2c(cn1)ncn2C [Compound 81] | 7.00 to 11.00
CN(c1cc2c(cn1)ncn2C)c1ccc(C2CCN(S(C)(=O)=O)CC2)cc1OC(F)F [Compound 287] | 7.00 to 11.00
CCc1cc(C2CCN(C(=O)C(F)F)CC2)ccc1N(C)c1cc2c(cn1)ncn2C [Compound 225] | 7.00 to 11.00
CN(c1cc2c(cn1)ncn2C)c1ccccc1F [Compound 67] | 6.30 to 7.00

Switching to the query record.
// recorded pIC50 for CCc1cc(CNS(=O)(=O)C(C)C)ccc1N(C)c1cc2c(cn1)ncn2C [Compound 245] : 6.30 to 7.00
